Test system: MCF-7 breast adenocarcinoma cells
assay-overview: MCF-7 proliferation assay (14C-thymidine), antagonist mode
Assay type: cell-based
measurement-context: Homo sapiens, MCF7, antagonist mode, with 10 pM E2
Counter-ions that a name gives are not always drawn.
assay-metric: log10 IC50 (log10 of the value in nM)
Hi team, quick reminder: these entries are log10 of IC50 (nM).

Problem: Dear colleague, I am looking for the recorded log10 IC50 of the following compound: Oc1ccc2c(c1)Cc1sc3cc(O)ccc3c1C2c1ccc(OCCN2CCCCC2)cc1 (centres unmarked) [Example 2, trifluoroacetate]
Solution: 0.00

Problem: Repeat with Oc1ccc2c3c(sc2c1)Cc1ccccc1C3c1ccc(OCCN2CCCCC2)cc1 (centres unmarked) [Example 1, trifluoroacetate]
Solution: 1.23

Problem: Repeat with Oc1ccc2c(c1)C(c1ccc(OCCN3CCCCC3)cc1)c1c(ccc3cc(O)ccc13)C2 (centres unmarked)
Solution: 0.85

Problem: Repeat with Oc1ccc2c3c(ccc2c1)Cc1cccc(O)c1C3c1ccc(OCCN2CCCCC2)cc1 (centres unmarked)
Solution: 1.83

---

The following molecules are shown together with reported pEC50 values.
System: Ishikawa human endometrial tumor cells
assay-overview: Ishikawa cell assay (PNPP readout), agonist mode
Type: cell-based
Description: Ishikawa human endometrial tumor cells are maintained in MEM (minimum essential medium, with Earle's salts and L-Glutamine, Gibco BRL, Gaithersburg, Md.), supplemented with 10% fetal bovine serum (FBS) (V/V), (Gibco BRL). […] After a 20-minute incubation, plates are read on a spectophotometer at 405 nm. […] For the agonist mode, a % efficacy for each compound is calculated versus the response to Tamoxifen. For the antagonist mode, a % efficacy for each compound is calculated versus E2 (1 nM) alone.
API: returns pEC50 as number; meaning -log10 of concentration in mol/L.

Field: example entries. Status: answers known.
{"molecule": "Oc1ccc2c3c(ccc2c1)Cc1ccc(F)cc1C3c1ccc(OCCN2CCCCC2)cc1 (racemic) [Example 6]", "assay-metric": "pEC50", "reported-value": 6.94}
{"molecule": "Oc1ccc2c3c(ccc2c1)Cc1ccc(F)cc1C3c1ccc(OCCN2CCCCC2)cc1 (racemic) [Example 7]", "assay-metric": "pEC50", "reported-value": 8.52}
{"molecule": "Oc1ccc2c(c1)Cc1ccc3cc(O)ccc3c1C2c1ccc(OCCN2CCCCC2)cc1 (racemic) [Example 10]", "assay-metric": "pEC50", "reported-value": 8.52}
{"molecule": "Oc1ccc2c(c1)Cc1ccc3cc(O)ccc3c1C2c1ccc(OCCN2CCCCC2)cc1 (racemic) [Example 11]", "assay-metric": "pEC50", "reported-value": 9.00}

Problem: Dear colleague, I am looking for the recorded pEC50 of the following molecule: Oc1ccc2c(c1)Cc1ccc3cc(O)ccc3c1C2c1ccc(OCCN2CCCCC2)cc1 (racemic) [Example 9]
Solution: 9.00

---

Counter-ions that a name gives are not always drawn.
Entries with reported pKi on ERAlpha receptor (Homo sapiens)
Sequence (P03372 whole entry): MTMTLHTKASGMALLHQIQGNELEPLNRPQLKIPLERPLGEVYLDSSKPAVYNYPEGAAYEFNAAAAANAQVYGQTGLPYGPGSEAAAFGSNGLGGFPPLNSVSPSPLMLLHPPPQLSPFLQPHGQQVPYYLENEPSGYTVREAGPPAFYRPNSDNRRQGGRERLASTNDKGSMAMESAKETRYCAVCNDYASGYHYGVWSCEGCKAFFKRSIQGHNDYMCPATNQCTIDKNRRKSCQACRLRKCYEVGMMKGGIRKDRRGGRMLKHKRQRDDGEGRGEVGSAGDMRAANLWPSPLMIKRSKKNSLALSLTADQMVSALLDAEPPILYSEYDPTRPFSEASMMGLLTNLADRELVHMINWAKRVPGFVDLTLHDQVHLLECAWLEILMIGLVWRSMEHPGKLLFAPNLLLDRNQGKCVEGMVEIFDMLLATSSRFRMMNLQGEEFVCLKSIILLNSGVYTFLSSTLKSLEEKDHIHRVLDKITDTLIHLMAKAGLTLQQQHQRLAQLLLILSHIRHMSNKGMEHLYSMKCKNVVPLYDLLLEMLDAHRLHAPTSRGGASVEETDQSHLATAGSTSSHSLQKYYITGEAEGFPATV
API: returns pKi as number; meaning -log10 of concentration in mol/L.

{"molecule": "Oc1ccc2c3c(sc2c1)Cc1ccccc1C3c1ccc(OCCN2CCCCC2)cc1 (stereo not shown) [Example 1, trifluoroacetate]", "system-tested": "ERAlpha receptor (Homo sapiens)", "pKi": 8.70}
{"molecule": "Oc1ccc2c(c1)Cc1sc3cc(O)ccc3c1C2c1ccc(OCCN2CCCCC2)cc1 (stereo not shown) [Example 2, trifluoroacetate]", "system-tested": "ERAlpha receptor (Homo sapiens)", "pKi": 9.00}
{"molecule": "Oc1ccc2c3c(ccc2c1)Cc1ccc(F)cc1C3c1ccc(OCCN2CCCCC2)cc1 (single isomer, unassigned) [Example 6]", "system-tested": "ERAlpha receptor (Homo sapiens)", "pKi": 7.15}
{"molecule": "Oc1ccc2c3c(sc2c1)Cc1cccc(O)c1C3c1ccc(OCCN2CCCCC2)cc1 (stereo not shown) [Example 3, trifluoroacetate]", "system-tested": "ERAlpha receptor (Homo sapiens)", "pKi": 8.52}
{"molecule": "Oc1ccc2c3c(ccc2c1)Cc1c(O)cccc1C3c1ccc(OCCN2CCCCC2)cc1 (stereo not shown)", "system-tested": "ERAlpha receptor (Homo sapiens)", "pKi": 9.00}

Problem: Dear colleague, I am looking for the recorded pKi of the following molecule: Oc1ccc2c3c(ccc2c1)Cc1cccc(O)c1C3c1ccc(OCCN2CCCCC2)cc1 (stereo not shown)
Solution: 8.10

Problem: Repeat with Oc1ccc2c3c(ccc2c1)Cc1ccc(F)cc1C3c1ccc(OCCN2CCCCC2)cc1 (racemic) [Example 7]
Solution: 9.00

---

The following molecules are shown together with reported EC50 values.
Test system: Ishikawa human endometrial tumor cells
assay-overview: Ishikawa cell assay (PNPP readout), agonist mode
Format: cell-based
measurement-context: Homo sapiens, Ishikawa
Structures can show the parent of a compound that is named as a salt.
// return numeric value only (unit: nM, not printed)

Field: example entries. Status: answers known.
{"molecule": "Oc1ccc2c3c(ccc2c1)Cc1ccc(F)cc1C3c1ccc(OCCN2CCCCC2)cc1 (racemic)", "units-symbol": "nM", "reported-value": 11}
{"molecule": "Oc1ccc2c3c(sc2c1)Cc1cccc(O)c1C3c1ccc(OCCN2CCCCC2)cc1 (centres unmarked) [Example 3, trifluoroacetate]", "units-symbol": "nM", "reported-value": 3}
{"molecule": "Oc1ccc2c3c(ccc2c1)Cc1c(O)cccc1C3c1ccc(OCCN2CCCCC2)cc1 (centres unmarked)", "units-symbol": "nM", "reported-value": 1}
{"molecule": "Oc1ccc2c(c1)Cc1sc3cc(O)ccc3c1C2c1ccc(OCCN2CCCCC2)cc1 (centres unmarked) [Example 2, trifluoroacetate]", "units-symbol": "nM", "reported-value": 0.5}
{"molecule": "Oc1ccc2c3c(ccc2c1)Cc1cccc(O)c1C3c1ccc(OCCN2CCCCC2)cc1 (centres unmarked)", "units-symbol": "nM", "reported-value": 28}
{"molecule": "Oc1ccc2c3c(sc2c1)Cc1ccccc1C3c1ccc(OCCN2CCCCC2)cc1 (centres unmarked) [Example 1, trifluoroacetate]", "units-symbol": "nM", "reported-value": 3}

Problem: Dear colleague, I am looking for the recorded EC50 of the following molecule: Oc1ccc2c(c1)C(c1ccc(OCCN3CCCCC3)cc1)c1c(ccc3cc(O)ccc13)C2 (centres unmarked)
Solution: 3

Problem: Repeat with Oc1ccc2c(c1)C(c1ccc(OCCN3CCCCC3)cc1)c1c(sc3cc(O)ccc13)C2 (centres unmarked)
Solution: 1

---

The following compounds are shown together with reported Ishikawa Agonist % Eff values.
Test system: Ishikawa human endometrial tumor cells
assay-overview: Ishikawa cell assay (PNPP readout), agonist mode
Format: cell-based
measurement-context: % efficacy versus the response to Tamoxifen
Method: Ishikawa human endometrial tumor cells are maintained in MEM (minimum essential medium, with Earle's salts and L-Glutamine, Gibco BRL, Gaithersburg, Md.), supplemented with 10% fetal bovine serum (FBS) (V/V), (Gibco BRL). […] After a 20-minute incubation, plates are read on a spectophotometer at 405 nm. […] For the agonist mode, a % efficacy for each compound is calculated versus the response to Tamoxifen. For the antagonist mode, a % efficacy for each compound is calculated versus E2 (1 nM) alone.

{"compound": "Oc1ccc2c3c(ccc2c1)Cc1ccc(F)cc1C3c1ccc(OCCN2CCCCC2)cc1 (racemic) [Example 7]", "assay-metric": "Ishikawa Agonist % Eff", "reported-value": "72%"}

Problem: Dear colleague, I am looking for the recorded Ishikawa Agonist % Eff of the following compound: Oc1ccc2c(c1)Cc1ccc3cc(O)ccc3c1C2c1ccc(OCCN2CCCCC2)cc1 (racemic) [Example 10]
Solution: 56%

Problem: Repeat with Oc1ccc2c(c1)Cc1ccc3cc(O)ccc3c1C2c1ccc(OCCN2CCCCC2)cc1 (racemic) [Example 9]
Solution: 27%

Problem: Repeat with Oc1ccc2c(c1)Cc1ccc3cc(O)ccc3c1C2c1ccc(OCCN2CCCCC2)cc1 (racemic) [Example 11]
Solution: 19%

---

Tested on: MCF-7 breast adenocarcinoma cells
assay-overview: MCF-7 proliferation assay (14C-thymidine), antagonist mode
Assay type: cell-based
measurement-context: Homo sapiens, MCF7, antagonist mode, with 10 pM E2
assay-metric: pIC50
API: returns pIC50 as number; meaning -log10 of concentration in mol/L.

Problem: Dear colleague, I am looking for the recorded pIC50 of the following compound: Oc1ccc2c(c1)C(c1ccc(OCCN3CCCCC3)cc1)c1c(sc3cc(O)ccc13)C2 (stereo not shown)
Solution: 9.00

---

The following compounds are shown together with reported IC50 values.
Test system: MCF-7 breast adenocarcinoma cells
assay-overview: MCF-7 proliferation assay (14C-thymidine), antagonist mode
Format: cell-based
measurement-context: Homo sapiens, MCF7, antagonist mode, with 10 pM E2
Counter-ions that a name gives are not always drawn.
// return numeric value only (unit: µM, not printed)

{"compound": "Oc1ccc2c3c(ccc2c1)Cc1ccc(F)cc1C3c1ccc(OCCN2CCCCC2)cc1 (racemic) [Example 5]", "units-symbol": "µM", "IC50": 0.091}
{"compound": "Oc1ccc2c3c(ccc2c1)Cc1c(O)cccc1C3c1ccc(OCCN2CCCCC2)cc1 (stereo not drawn) [Example 13]", "units-symbol": "µM", "IC50": 0.003}

Attention now turns to another entry.
Problem: Dear colleague, I am looking for the recorded IC50 of the following compound: Oc1ccc2c3c(sc2c1)Cc1cccc(O)c1C3c1ccc(OCCN2CCCCC2)cc1 (stereo not drawn) [Example 3, trifluoroacetate]
Solution: 0.042
